Biological target: human HSD17β13 (stable HEK293T cell line overexpressing human HSD17β13) (Homo sapiens, UniProt Q7Z5P4)
Sequence (Q7Z5P4 20-300): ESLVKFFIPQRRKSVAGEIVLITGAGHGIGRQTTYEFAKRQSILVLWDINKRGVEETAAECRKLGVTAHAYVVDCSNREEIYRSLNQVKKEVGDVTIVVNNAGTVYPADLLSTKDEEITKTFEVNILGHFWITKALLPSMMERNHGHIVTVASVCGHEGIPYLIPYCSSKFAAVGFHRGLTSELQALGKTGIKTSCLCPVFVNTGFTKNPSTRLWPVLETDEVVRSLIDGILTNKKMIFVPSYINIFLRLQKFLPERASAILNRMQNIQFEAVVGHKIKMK
Assay: HSD17β13 inhibitor cell-based screening assay (conversion of estradiol-d2 to estrone-d2 by RF-MS)
Conditions: conversion of estradiol-d2 to estrone-d2 after 24 hours
pIC50: −log10 of the molar value.
# key: entry, value: pIC50
Parameter measured: pIC50

| Structure notation | Measurement |
| --- | --- |
| COc1cc(C2CC2)c(-c2nc3sc4c(O)c(Cl)cc(Cl)c4c3c(=O)n2Cc2cnco2)cc1Cl | 6.30 to 7.00 |
| COc1ccc(-c2nc3sc4c(O)c(Cl)ccc4c3c(=O)n2Cc2cnc(C3CC3)o2)c(C2CC2)c1 | > 7.00 |
| COc1ccc(-c2nc3sc4c(O)c(C#N)ccc4c3c(=O)n2Cc2cnco2)c(C2CC2)c1 | 6.00 to 6.30 |
| O=c1c2c(nc(-c3ccc(F)c(F)c3C3CC3)n1Cc1cnco1)sc1c(O)c(Cl)ccc12 | > 7.00 |
| Cc1ncc(Cn2c(-c3ccc(F)cc3C3CC3)nc3sc4c(O)c(Cl)ccc4c3c2=O)o1 | > 7.00 |
| COc1ccc(-c2nc3sc4c(O)c(Cl)ccc4c3c(=O)n2C[C@@H]2CC(=O)N(C)C2)c(C2CC2)c1 | > 7.00 |
| COc1ccc(-c2nc3sc4c(O)c(Cl)ccc4c3c(=O)n2Cc2cn(C(F)(F)F)nn2)c(C2CC2)c1 | > 7.00 |
| COc1ccc(-c2nc3sc4c(ccc5oc(=O)[nH]c54)c3c(=O)n2Cc2cnco2)c(C2CC2)c1 | 4.00 to 6.00 |
| O=c1c2c(nc(-c3cc(C(F)(F)F)ccc3C3CC3)n1Cc1cnco1)sc1c(O)c(Cl)ccc12 | > 7.00 |
| Cc1ncc(Cn2c(-c3cc(F)c(F)cc3C3CC3)nc3sc4c(O)c(Cl)ccc4c3c2=O)o1 | > 7.00 |
| C/C=C/c1cc2cn[nH]c2cc1-c1nc2sc3c(O)c(Cl)ccc3c2c(=O)n1Cc1cnco1 | 6.30 to 7.00 |
| O=c1c2c(nc(-c3cc(F)c(F)cc3C3CC3)n1Cc1nncs1)sc1c(O)c(Cl)ccc12 | > 7.00 |
| COc1ccc(-c2nc3sc4c(OCCO)cccc4c3c(=O)n2Cc2cnco2)c(C2CC2)c1 | 4.00 to 6.00 |
| O=c1c2c(nc(-c3cc(F)c(Cl)cc3C3CC3)n1Cc1cc(C(F)(F)F)no1)sc1c(O)c(Cl)ccc12 | > 7.00 |
| COc1cc(C2CC2)c(-c2nc3sc4c(O)c(Cl)ccc4c3c(=O)n2Cc2cnco2)cc1C(F)(F)F | > 7.00 |
| COc1ccc(-c2nc3sc4c(NS(C)(=O)=O)cccc4c3c(=O)n2Cc2cnco2)c(C2CC2)c1 | 4.00 to 6.00 |
| O=c1c2c(nc(-c3ncc(C(F)F)cc3C3CC3)n1Cc1cnc(C(F)(F)F)nc1)sc1c(O)c(Cl)ccc12 | > 7.00 |
| COc1cc(-c2nc3sc4c(O)c(Cl)ccc4c3c(=O)n2Cc2cnco2)c(C2CC2)cc1OC | 6.30 to 7.00 |
| O=c1c2c(nc(-c3cc(F)c(F)cc3C3CC3)n1Cc1cnccn1)sc1c(O)c(Cl)ccc12 | > 7.00 |
| O=c1c2c(nc(-c3ccc(OC(F)(F)F)cc3C3CC3)n1Cc1cnco1)sc1c(O)c(Cl)ccc12 | > 7.00 |
| N#Cc1ncc(Cn2c(-c3cc(F)c(F)cc3C3CC3)nc3sc4c(O)c(Cl)ccc4c3c2=O)s1 | > 7.00 |
| COc1ccc(-c2nc3sc4c(O)c(Cl)ccc4c3c(=O)n2Cc2cnc(C(C)C)s2)c(C2CC2)c1 | > 7.00 |
| O=c1c2c(nc(-c3ccc(C(F)F)cc3C3CC3)n1Cc1ccc(C(F)(F)F)nc1)sc1c(O)c(Cl)ccc12 | > 7.00 |
| O=c1c2c(nc(-c3cnc(C(F)(F)F)cc3C3CC3)n1Cc1cnc(C(F)(F)F)nc1)sc1c(O)c(Cl)ccc12 | > 7.00 |
| COc1ccc(-c2nc3sc4c(O)c(Cl)ccc4c3c(=O)n2Cc2cnc(C(F)F)s2)c(C2CC2)c1 | > 7.00 |
| COc1cccc(-c2nc3sc4c(O)c(Cl)ccc4c3c(=O)n2Cc2cnco2)c1C1CC1 | > 7.00 |
| COCc1cc(Cn2c(-c3cc(F)c(F)cc3C3CC3)nc3sc4c(O)c(Cl)ccc4c3c2=O)on1 | > 7.00 |
| COc1ccc(-c2nc3sc4c(O)c(Cl)ccc4c3c(=O)n2Cc2cnn(C)c2)c(C2CC2)c1 | > 7.00 |
| COc1ccc(-c2nc3sc4c(O)c(Cl)ccc4c3c(=O)n2Cc2cncs2)c(C2CC2)c1 | > 7.00 |
| COc1ccc(-c2nc3sc4c(O)c(Cl)ccc4c3c(=O)n2Cc2sc(C)nc2C)c(C2CC2)c1 | > 7.00 |
